The reported measurements were obtained from the supplement of paper PMC10567573.

B1: FCHO1 (parent)
chain: FTSSPSPFSSSSPENVEDSGLDSP

# Variants of: B1
# protocol_details: protein stability index of a GFP-peptide fusion (GPS, HEK-293T) (PSI 1-6); higher = more stable;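 also: lentivirally expressed fusions sorted by FACS into six bins by GFP to DsRed ratio, PSI derived from sequencing read proportions per bin multiplied by bin number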
# stated_conditions: c terminus: a fixed tail appended
I'd be grateful if you could share measured protein stability index for these entries.
Output spec: single numeric token, no unit.

Given the entry `F8Y` , report its measured protein stability index. 2.04

Which protein stability index value belongs to `S23Y` ? 1.37

Name the recorded protein stability index for `E17S` . 2.53

Can you share its protein stability index? I mean this variant: `P5M` 2.02

Entry under review: `S10P` . Reported protein stability index? 2.3

Which protein stability index is listed for `P13R` ? 1.85

Given the variant `P5I` , what is its reported protein stability index? 1.81

Give the measured protein stability index of `S10D` . 1.93

Which protein stability index value belongs to `S3N` ? 2.71

If you can, please state the reported protein stability index value of `S4N` . 2.06

Reported protein stability index, variant `V16G` : ____ 2.75

Field request: protein stability index | item: `P24T` 2.08

Any idea what its protein stability index is? The variant is `T2R` 5.01

Any idea what its protein stability index is? The variant is `F8K` 5.34

What protein stability index value was documented for this variant, `E14P` ? 1.94

Look at this variant and give its reported protein stability index. `S3D` 2.7

For `L21A` , what is its reported protein stability index? 1.49

Endpoint output: protein stability index of `S4L` . Value? 2.31

Give the measured protein stability index of `S4H` . 1.91

Give the measured protein stability index of `P5H` . 2.23

So what's the measured protein stability index for this one? `P13C` 1.53

For the variant shown here, `E17A` , give the reported protein stability index. 1.5

Query (variant): `S6N` ; field requested: protein stability index 1.98

Need protein stability index of `P7C` , thanks. 1.56

Entry `E17N` : reported protein stability index = ? 2.1

Fill in the blank: the reported protein stability index of `P13F` is ____. 2.49

Name the recorded protein stability index for `D18F` . 2.26

Consider the variant shown here: `T2L` What is its recorded protein stability index? 3.48

Which measured protein stability index value corresponds to `S4Q` ? 2.14

Reported protein stability index for `V16Y` : what is it? 2.03

Tell me the measured protein stability index of `G20P` , please. 1.86

Quick one: protein stability index for `S9C` ? 2.22

What measured protein stability index goes with `E17W` ? 1.65

Which protein stability index reading was recorded for the variant `P7T` ? 2.38

Returns the measured protein stability index for the input variant. Input: `E17F` 2.21

// protein stability index lookup, key: `D22H` 2.29

So what's the measured protein stability index for this one? `P7F` 1.93

So what's the measured protein stability index for this one? `L21N` 2.28

Quick check: protein stability index of `S23Q` ? 2.66

Any idea what protein stability index was measured for `S9G` ? 2.2

If you can, please state the reported protein stability index value of `F8G` . 4.72

I have this variant here, `G20W` , and I need its recorded protein stability index. 1.56

Requested field: protein stability index. Item: `V16M` 1.68

Fill in: protein stability index of `G20R` is ___ 1.91

Requested field: protein stability index. Item: `D22C` 2.47

Field request: protein stability index | item: `F1H` 4.74
